Measured values drawn from ChEMBL document CHEMBL4330056 for this set.

// Activity lookup, one value per entry
- system-name: Adenosine kinase (Homo sapiens, UniProt P55263)
- Sequence (P55263 whole entry): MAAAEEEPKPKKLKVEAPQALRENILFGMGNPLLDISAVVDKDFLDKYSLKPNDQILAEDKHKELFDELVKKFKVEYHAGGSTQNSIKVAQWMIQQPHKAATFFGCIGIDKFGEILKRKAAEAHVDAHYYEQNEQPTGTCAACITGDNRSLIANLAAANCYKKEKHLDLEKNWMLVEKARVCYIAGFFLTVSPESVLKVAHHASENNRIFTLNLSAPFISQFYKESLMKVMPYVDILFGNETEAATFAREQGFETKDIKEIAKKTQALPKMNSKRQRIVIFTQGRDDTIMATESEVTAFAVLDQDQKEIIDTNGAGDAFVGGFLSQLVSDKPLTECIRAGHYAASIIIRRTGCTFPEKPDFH
- run-description: Substrate activity at recombinant human ADK assessed as compound phosphorylation at 50 uM after 20 mins in presence of [3H]-adenosine by UPLC
- Type: ADME

{"input-smiles": "Cn1ccc2c3c(Cl)ncnc3n([C@@H]3O[C@H](CO)[C@@H](O)[C@H]3O)c21", "display-unit": "%", "Activity": 0}
{"input-smiles": "OC[C@H]1O[C@@H](n2c3ccoc3c3c(-c4cc5ccccc5o4)ncnc32)[C@H](O)[C@@H]1O", "display-unit": "%", "Activity": 58}
{"input-smiles": "CN(C)c1ncnc2c1c1c(ccn1C)n2[C@@H]1O[C@H](CO)[C@@H](O)[C@H]1O", "display-unit": "%", "Activity": 0}
{"input-smiles": "Cn1ccc2c1c1c(N)ncnc1n2[C@@H]1O[C@H](CO)[C@@H](O)[C@H]1O", "display-unit": "%", "Activity": 68}
{"input-smiles": "COc1ncnc2c1c1ccn(C)c1n2[C@@H]1O[C@H](CO)[C@@H](O)[C@H]1O", "display-unit": "%", "Activity": 0}
{"input-smiles": "Cc1ncnc2c1c1occc1n2[C@@H]1O[C@H](CO)[C@@H](O)[C@H]1O", "display-unit": "%", "Activity": 48}
{"input-smiles": "Cn1ccc2c1c1c(-c3ccoc3)ncnc1n2[C@@H]1O[C@H](CO)[C@@H](O)[C@H]1O", "display-unit": "%", "Activity": 9}
{"input-smiles": "CN(C)c1ncnc2c1c1ccn(C)c1n2[C@@H]1O[C@H](CO)[C@@H](O)[C@H]1O", "display-unit": "%", "Activity": 0}
{"input-smiles": "Cc1ncnc2c1c1ccn(C)c1n2[C@@H]1O[C@H](CO)[C@@H](O)[C@H]1O", "display-unit": "%", "Activity": 0}

====

- Test system: CCRF-CEM
- run-description: Inhibition of RNA synthesis in human CCRF-CEM cells assessed as RNA synthesis level at 5 times IC50 concentration after 24 hrs by BrU incorporation assay (reference value: 49.89%)
- Format: functional
- Set-up: scale not given: the % may be the effect or the level left
// NB: equality with 4% counts as NOT MET; only Activity strictly below is MET

{"input-smiles": "Cc1ncnc2c1c1occc1n2[C@@H]1O[C@H](CO)[C@@H](O)[C@H]1O", "label": "MET"}
{"input-smiles": "COc1ncnc2c1c1c(ccn1C)n2[C@@H]1O[C@H](CO)[C@@H](O)[C@H]1O", "label": "NOT MET"}
{"input-smiles": "CSc1ncnc2c1c1c(ccn1C)n2[C@@H]1O[C@H](CO)[C@@H](O)[C@H]1O", "label": "MET"}
{"input-smiles": "Cc1ncnc2c1c1c(ccn1C)n2[C@@H]1O[C@H](CO)[C@@H](O)[C@H]1O", "label": "NOT MET"}
{"input-smiles": "Nc1ncnc2c1c(-c1cccs1)cn2[C@@H]1O[C@H](CO)[C@@H](O)[C@H]1O", "label": "NOT MET"}
{"input-smiles": "CSc1ncnc2c1c1occc1n2[C@@H]1O[C@H](CO)[C@@H](O)[C@H]1O", "label": "NOT MET"}
{"input-smiles": "COc1ncnc2c1c1occc1n2[C@@H]1O[C@H](CO)[C@@H](O)[C@H]1O", "label": "NOT MET"}

====

- System: Hepatitis C virus
- run-description: Antiviral activity against Hepatitis C virus genotype 1b infected in human Huh-luc replicon cells after 3 days by luciferase assay
- Type: functional, organism-based, Hepacivirus hominis
- cond: subtype 1b, 72 h
Measured log10 EC50, listed per entry.
measured-property: log10 EC50 (log10 of the value in nM)

{"input-smiles": "COc1ncnc2c1c1occc1n2[C@@H]1O[C@H](CO)[C@@H](O)[C@H]1O", "log10 EC50": 2.58}
{"input-smiles": "Cn1ccc2c3c(N)ncnc3n([C@@H]3O[C@H](CO)[C@@H](O)[C@H]3O)c21", "log10 EC50": 4.44}
{"input-smiles": "Cn1ccc2c3c(-c4ccco4)ncnc3n([C@@H]3O[C@H](CO)[C@@H](O)[C@H]3O)c21", "log10 EC50": 2.53}
{"input-smiles": "Cc1ncnc2c1c1occc1n2[C@@H]1O[C@H](CO)[C@@H](O)[C@H]1O", "log10 EC50": 2.45}
{"input-smiles": "Cc1ncnc2c1c1c(ccn1C)n2[C@@H]1O[C@H](CO)[C@@H](O)[C@H]1O", "log10 EC50": 2.28}
{"input-smiles": "Cn1ccc2c3c(-c4ccoc4)ncnc3n([C@@H]3O[C@H](CO)[C@@H](O)[C@H]3O)c21", "log10 EC50": 4.22}
{"input-smiles": "COc1ncnc2c1c1c(ccn1C)n2[C@@H]1O[C@H](CO)[C@@H](O)[C@H]1O", "log10 EC50": 1.95}

====

- System: HL-60
- run-description: Antiproliferative activity against human HL60 cells after 72 hrs by XTT assay
- Type: functional, cell-based
- cond: HL-60, 72 h
pIC50: −log10 of the molar value.
Recorded pIC50 by entry

{"input-smiles": "Cn1ccc2c3c(-c4ccco4)ncnc3n([C@@H]3O[C@H](CO)[C@@H](O)[C@H]3O)c21", "system-name": "HL-60", "limit-qualifier": "=", "pIC50": 5.52}
{"input-smiles": "Cn1ccc2c1c1c(-c3ccoc3)ncnc1n2[C@@H]1O[C@H](CO)[C@@H](O)[C@H]1O", "system-name": "HL-60", "limit-qualifier": "<", "pIC50": 4.30}
{"input-smiles": "Cn1ccc2c1c1c(-c3cc4ccccc4o3)ncnc1n2[C@@H]1O[C@H](CO)[C@@H](O)[C@H]1O", "system-name": "HL-60", "limit-qualifier": "<", "pIC50": 4.30}
{"input-smiles": "Cc1ncnc2c1c1ccn(C)c1n2[C@@H]1O[C@H](CO)[C@@H](O)[C@H]1O", "system-name": "HL-60", "limit-qualifier": "<", "pIC50": 4.30}
{"input-smiles": "OC[C@H]1O[C@@H](n2c3ccoc3c3c(-c4cc5ccccc5o4)ncnc32)[C@H](O)[C@@H]1O", "system-name": "HL-60", "limit-qualifier": "<", "pIC50": 4.30}
{"input-smiles": "Cn1ccc2c3c(Cl)ncnc3n([C@@H]3O[C@H](CO)[C@@H](O)[C@H]3O)c21", "system-name": "HL-60", "limit-qualifier": "<", "pIC50": 4.30}
{"input-smiles": "OC[C@H]1O[C@@H](n2c3ccoc3c3c(-c4ccco4)ncnc32)[C@H](O)[C@@H]1O", "system-name": "HL-60", "limit-qualifier": "=", "pIC50": 5.59}
{"input-smiles": "CN(C)c1ncnc2c1c1ccn(C)c1n2[C@@H]1O[C@H](CO)[C@@H](O)[C@H]1O", "system-name": "HL-60", "limit-qualifier": "<", "pIC50": 4.30}
{"input-smiles": "Cc1ncnc2c1c1c(ccn1C)n2[C@@H]1O[C@H](CO)[C@@H](O)[C@H]1O", "system-name": "HL-60", "limit-qualifier": "=", "pIC50": 5.82}
{"input-smiles": "COc1ncnc2c1c1occc1n2[C@@H]1O[C@H](CO)[C@@H](O)[C@H]1O", "system-name": "HL-60", "limit-qualifier": "=", "pIC50": 6.15}
{"input-smiles": "Cn1ccc2c1c1c(Cl)ncnc1n2[C@@H]1O[C@H](CO)[C@@H](O)[C@H]1O", "system-name": "HL-60", "limit-qualifier": "=", "pIC50": 7.22}
{"input-smiles": "Cn1ccc2c3c(-c4ccoc4)ncnc3n([C@@H]3O[C@H](CO)[C@@H](O)[C@H]3O)c21", "system-name": "HL-60", "limit-qualifier": "<", "pIC50": 4.30}
{"input-smiles": "COc1ncnc2c1c1ccn(C)c1n2[C@@H]1O[C@H](CO)[C@@H](O)[C@H]1O", "system-name": "HL-60", "limit-qualifier": "<", "pIC50": 4.30}
{"input-smiles": "CSc1ncnc2c1c1occc1n2[C@@H]1O[C@H](CO)[C@@H](O)[C@H]1O", "system-name": "HL-60", "limit-qualifier": "=", "pIC50": 6.54}
{"input-smiles": "CSc1ncnc2c1c1ccn(C)c1n2[C@@H]1O[C@H](CO)[C@@H](O)[C@H]1O", "system-name": "HL-60", "limit-qualifier": "<", "pIC50": 4.30}
{"input-smiles": "Cn1ccc2c1c1c(N)ncnc1n2[C@@H]1O[C@H](CO)[C@@H](O)[C@H]1O", "system-name": "HL-60", "limit-qualifier": "=", "pIC50": 5.64}
{"input-smiles": "OC[C@H]1O[C@@H](n2c3ccoc3c3c(-c4ccoc4)ncnc32)[C@H](O)[C@@H]1O", "system-name": "HL-60", "limit-qualifier": "=", "pIC50": 5.72}
